Tested on: NCI-H23 lung
experimental_details: NCI tumour cell line growth inhibition, 48 h
result_type: GI50

compound	GI50
O=C(NC(=S)Nc1ccccn1)c1ccccc1	> 100 µM
CCn1c2ccccc2c2cc(/C=C(/C#N)C(N)=S)ccc21	14.8 µM
O=C(/C=C/c1cc2ccccc2[nH]c1=O)c1ccc(Cl)cc1	27.3 µM
O=C1c2ccccc2C(=O)c2c1c(=O)c(=O)c1ccccc1c(=O)n2Cc1ccccc1	8.51 µM
COC(=O)C1=C(OC(=O)c2ccccc2)C(C(=O)OC)[C@]2(O)[C@@H](C(=O)OC)C1CC(c1ccccc1OC)[C@@H]2C(=O)OC (stereo partly specified)	24.2 µM

Next up:
Q. # lookup: GI50 of COc1cc(C(=O)c2c(-c3ccccc3)oc3c(OC)cccc23)cc(OC)c1O
A. 0.864 µM

---

System: SNB-19 CNS
experimental_details: NCI tumour cell line growth inhibition, 48 h
result_type: TGI

compound	experimental_system	TGI
N#Cc1c(-c2ccc(Cl)cc2)csc1NC(=O)Nc1ccc(Cl)c(C(F)(F)F)c1	SNB-19 CNS	35.2 µM

// input: 2 compounds below; output: TGI for each
1. O=C1C(Cl)=C(Nc2cccc(O)c2)C(=O)N1CCc1ccccc1
2. Cc1ccc(C)c2c1C/C(=C\c1ccccc1C(=O)O)C2=O

A.
1. 49.4 µM
2. > 100 µM

---

System: MCF7 breast
experimental_details: NCI tumour cell line growth inhibition, 48 h
result_type: TGI

Example cases with answers are listed next.
molecule	TGI
CCN(CC)CCCC(CO)Nc1ccnc2cc(Cl)ccc12 (stereo not given)	> 100 µM
COc1cc(C(=O)c2c(-c3ccccc3)oc3c(OC)cccc23)cc(OC)c1O	> 100 µM

// input: 2 molecules below; output: TGI for each
1. O=C(C=P(c1ccccc1)(c1ccccc1)c1ccccc1)c1ccc(-c2cccc([N+](=O)[O-])c2)cc1
2. N#C/C(=C\c1cn(Cc2ccccc2)c2ccccc12)C(=O)Nc1ncc(Cc2ccccc2Cl)s1

A.
10.6 µM
> 100 µM

---

System: SK-MEL-2 melanoma
experimental_details: NCI tumour cell line growth inhibition, 48 h
result_type: TGI

Example cases with answers are listed next.
compound	result_type	assay_result
C=C1C(=O)O[C@H]2[C@H]1CC/C(CNC(=O)c1cccc3ccccc13)=C\CC[C@@]1(C)O[C@@H]21	TGI	24.2 µM
CN(NC(=O)/C(=C/c1ccc(Cl)cc1)NC(=O)c1ccccc1)c1cn[nH]c(=O)c1Cl	TGI	> 100 µM
CC1(C)CCC2(CC1)N[C@@H](C(=O)N[C@@H]1CC[C@@H](C(N)=O)OC1)[C@H](c1ccnc(Cl)c1F)[C@]21C(=O)Nc2cc(Cl)ccc21	TGI	5.02 µM
O=C1C=CC(=O)c2c1ccc1c3ccccc3n(CCCCCCCCn3c4ccccc4c4ccc5c(c43)C(=O)C=CC5=O)c21	TGI	> 100 µM
CCOP(=S)(OCC)Oc1ccc2c(c1)OC(=O)C1(Cl)C2(C)C2(Cl)C(=O)Oc3cc(OP(=S)(OCC)OCC)ccc3C12C (configuration not stated)	TGI	42.3 µM
COc1ccc(N2C(=O)C3c4[nH]c5ccccc5c4C4CCC(c5ccccc5)CC4C3C2=O)cc1 (configuration not stated)	TGI	53.2 µM

// input: 5 compounds below; output: TGI for each
1. O=C1[C@@H]2C(c3cccc([N+](=O)[O-])c3)=NO[C@@H]2C(=O)N1c1ccc(Cc2ccc(N3C(=O)[C@H]4C(c5cccc([N+](=O)[O-])c5)=NO[C@H]4C3=O)cc2)cc1
2. c1cc(-c2ccc(-c3ccc(-c4ccc(-c5cccc6nsnc56)[nH]4)c4nsnc34)[nH]2)c2nsnc2c1
3. CC1(C)OC(=O)C(c2cccs2)C(=O)O1
4. O=C(NCCOC(=O)OCCNC(=O)NC1CCCCC1)NC1CCCCC1
5. COc1ccc(Nc2nn3c(=O)c4c(C)c(C)sc4nc3s2)cc1

A.
["> 100 µM", "> 100 µM", "> 100 µM", "> 100 µM", "> 100 µM"]

// input: 5 compounds below; output: TGI for each
1. Brc1ccc(SCN(CSc2ccc(Br)cc2)Cc2ccccc2)cc1
2. CCCOP1(=O)C=C(O)C(Cl)=C(C)C1 (configuration not stated)
3. CCN(C(=N)C#N)c1ccccc1
4. COc1ccc(C(=C[N+](=O)[O-])c2ccc(OC)cc2)cc1
5. Cc1cc(C#N)c[n+](C)c1

A.
19.9 µM
> 100 µM
> 100 µM
33.3 µM
> 100 µM

Q. # lookup: TGI of O=C1c2ccccc2C(=Nc2ccc3ccccc3c2)C1(C1=C(c2ccccc2)C(=Nc2ccc3ccccc3c2)c2ccccc21)c1ccccc1 (configuration not stated)
A. > 69.5 µM

---

Tested on: SF-295 CNS
experimental_details: NCI tumour cell line growth inhibition, 48 h
*1 amine or outer side, *2 acyl side, *3 side chain or, on linkers, in order; H or OH if unused. Where a SMILES comes first, the peptide text is derived from it. [ ]: non-standard residue; d: D form. ξ: configuration not given here. Ile(3ξ) = CCC(C)[C@H](N)C(=O)O; X33 = C=CCC(O[*:1])C(=O)[*:2]; NMeV = CN[C@H](C(=O)O)C(C)C; NMeA = CN[C@@H](C)C(=O)O; βAla = NCCC(=O)O
Give measured TGI for each item. Keep answers brief.

Example cases with answers are listed next.
compound	assay_result
Nc1c(Br)cc2c(c1Br)Cc1cc(Br)ccc1-2	> 100 µM
COc1ccc2c(c1)C1C(CO2)C(c2ccccc2)=NN1c1ccccc1 (stereo not drawn)	> 100 µM
c1ccc(NNC2=NCCN2)cc1	> 100 µM
C=CCC1OC(=O)CCNC(=O)[C@H](C)N(C)C(=O)[C@H](C(C)C)N(C)C(=O)[C@H](C(C)CC)NC(=O)[C@@H]2CCCN2C1=O (stereo partly drawn) (cyclo([Ile(3ξ)][NMeV][NMeA][βAla][X33]P))	> 100 µM
N#Cc1c(-c2ccc([N+](=O)[O-])cc2)cc(-c2ccc(Nc3ccnc4cc(C(F)(F)F)ccc34)cc2)[nH]c1=O	> 100 µM

// input: 5 compounds below; output: TGI for each
1. O=C(c1ccc(Cl)cc1Cl)N(/N=C/C=C/c1ccccc1)c1nnc(-c2ccccc2)c(-c2ccccc2)n1
2. CCN(CC)CCn1ncc2c3c(=O)c4cccnc4n(CCN(CC)CC)c3ccc21
3. C=C1CC2(OC1=O)C(=O)N(C)c1ccc(I)cc12 (stereo not drawn)
4. COC(=O)[C@@H]1C[C@@]23CCCN4CC[C@@]5(c6cccc(OC)c6N(C=O)[C@]15CC2)[C@@H]43
5. CC1(C)OC(=O)C(c2cccs2)C(=O)O1

A.
1. > 100 µM
2. > 10 µM
3. 8.16 µM
4. > 100 µM
5. > 100 µM

// input: 6 compounds below; output: TGI for each
1. CCOP(=S)(OCC)Oc1ccc2c(c1)OC(=O)C1(Cl)C2(C)C2(Cl)C(=O)Oc3cc(OP(=S)(OCC)OCC)ccc3C12C (stereo not drawn)
2. COC(=O)C1=C(OC(=O)c2ccccc2)C(C(=O)OC)[C@]2(O)[C@@H](C(=O)OC)C1CC(c1ccccc1OC)[C@@H]2C(=O)OC (stereo partly drawn)
3. COc1ccc(C23OCC(Cc4cc(OC)c(OC)cc42)C3COC(C)=O)cc1OC (stereo not drawn)
4. Fc1c(F)c(F)c2c(c1F)CSc1nc3ccccc3n1-2
5. CN(C)c1ccc(Nc2ncnc3ccccc23)cc1
6. COc1ccc(/C=C/C(=O)C(C)(C)C)cc1OC

A.
1. 29.7 µM
2. > 100 µM
3. > 100 µM
4. > 100 µM
5. > 100 µM
6. > 100 µM

// input: 2 compounds below; output: TGI for each
1. COc1ccc(C2/C(=C(\O)c3ccccc3)C(=O)C(O)(CC(=O)c3ccccc3)N2c2ccc(OC)cc2)cc1 (stereo not drawn)
2. CCC(O)CC1OC2(CCC1C)CC1OC(=O)/C=C\C(C)(O)C(O)C(C)C(O)C(OC3CC(OC)C(O)C(C)O3)C(O)C(C)(O)CCC/C=C/C3CC(C)COC3(O)CC(O2)C1C (stereo not drawn)

A.
1. > 100 µM
2. > 41.8 µM

---

Tested on: BT-549 breast
experimental_details: NCI tumour cell line growth inhibition, 48 h
Grouping key: TGI. Bins: low range: < 10 µM; mid range: ≥ 10 µM and < 30 µM; high range: ≥ 30 µM

Examples from the recorded data:
compound	class_label
NCCc1c[nH]c2ccc(OC(=O)C(=O)O)cc12	high range
Cc1cccc2c1CC(C1OC(=O)c3ccccc31)C2=O (centres undefined)	high range
N#Cc1c(-c2ccc([N+](=O)[O-])cc2)cc(-c2ccc(Nc3ccnc4cc(C(F)(F)F)ccc34)cc2)[nH]c1=O	high range
CC(C)=CC(=O)c1[nH]c2ccccc2c1CC(=O)NCCc1cn(C(c2ccccc2)(c2ccccc2)c2ccccc2)cn1	mid range
O=C1C=CC(=O)c2c1ccc1c3ccccc3n(CCCCCCCCn3c4ccccc4c4ccc5c(c43)C(=O)C=CC5=O)c21	high range

Q. Exam item: assign Oc1c(CN2CCOCC2)ccc(CN2CCOCC2)c1O to the correct category.
A. high range

Q. // repeat for c1cc(-c2ccc(-c3ccc(C4=NCCCN4)cc3)o2)ccc1C1=NCCCN1 and report
A. high range

Q. // repeat for CC(C)=CC(O)C(C(O)CCC1(C)OCCO1)S(=O)(=O)c1ccccc1 (centres undefined) and report
A. high range

Q. // repeat for O=C1c2ccccc2C(=Nc2ccc3ccccc3c2)C1(C1=C(c2ccccc2)C(=Nc2ccc3ccccc3c2)c2ccccc21)c1ccccc1 (centres undefined) and report
A. high range

Q. // repeat for Oc1ccc(Nc2nc3ccccc3c3occc23)cc1 and report
A. high range

Q. // repeat for O=C1C=CC(=O)c2c(O)ccc(O)c21 and report
A. low range

Attribution: PubChem BioAssay (NCI)
